The entries below come with measured IC50 values attached.
- tgt: FSH receptor (Homo sapiens, UniProt P23945)
- Sequence (P23945 18-695): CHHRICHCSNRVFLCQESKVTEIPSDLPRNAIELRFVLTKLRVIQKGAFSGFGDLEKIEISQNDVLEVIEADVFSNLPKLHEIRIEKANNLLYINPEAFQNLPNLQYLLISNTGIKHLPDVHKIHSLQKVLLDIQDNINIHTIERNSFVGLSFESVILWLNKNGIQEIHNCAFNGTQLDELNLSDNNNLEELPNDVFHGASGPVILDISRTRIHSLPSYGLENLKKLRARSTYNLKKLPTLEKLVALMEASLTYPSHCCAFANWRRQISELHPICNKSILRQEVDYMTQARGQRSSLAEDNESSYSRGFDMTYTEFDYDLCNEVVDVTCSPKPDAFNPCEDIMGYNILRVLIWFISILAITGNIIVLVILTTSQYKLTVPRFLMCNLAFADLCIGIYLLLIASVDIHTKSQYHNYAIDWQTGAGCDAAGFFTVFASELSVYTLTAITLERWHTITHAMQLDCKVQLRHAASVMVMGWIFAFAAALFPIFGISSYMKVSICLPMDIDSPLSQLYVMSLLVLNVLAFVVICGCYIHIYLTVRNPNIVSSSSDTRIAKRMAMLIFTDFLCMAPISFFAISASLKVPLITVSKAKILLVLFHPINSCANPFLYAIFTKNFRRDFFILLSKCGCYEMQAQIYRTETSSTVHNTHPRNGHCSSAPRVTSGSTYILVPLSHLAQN
- protocol: FSH Receptor Radioligand Membrane Binding Standard Pharmacological Test Procedure
- Set-up: expressed in transfected cells
- stated_conditions: [125I]FSH binding to membranes of CHO cells stably transfected with the human FSH receptor
Report only the number, with the unit µM understood.

1) O=C(Nc1ccc(/C=C/c2ccc(NC(=O)c3ccc(OCc4ccco4)c(S(=O)(=O)N4CCOCC4)c3)cc2S(=O)(=O)O)c(S(=O)(=O)O)c1)c1ccc(OCc2ccco2)c(S(=O)(=O)N2CCOCC2)c1 [Example 30u] ... 10

What does the record list as IC50 for COC(=O)CS(=O)(=O)c1ccc(C(=O)Nc2ccc(C=Cc3ccc(NC(=O)c4ccc(S(=O)(=O)CC(=O)OC)cc4)cc3S(=O)(=O)O)c(S(=O)(=O)O)c2)cc1 [Example 32c] ? 6.9

What does the record list as IC50 for COCCOc1ccc(C(=O)Nc2ccc(CCc3ccc(NC(=O)c4ccc(OCCOC)c(S(=O)(=O)N5CCOCC5)c4)cc3S(=O)(=O)O)c(S(=O)(=O)O)c2)cc1S(=O)(=O)N1CCOCC1 [Example 43f] ? 5

* * *

- tgt: FSH receptor (Rattus norvegicus)
- Construct: endogenous in cells; host or cells: primary ovarian granulosa cells of DES-treated immature Sprague-Dawley rats
- Sequence (P20395 18-692): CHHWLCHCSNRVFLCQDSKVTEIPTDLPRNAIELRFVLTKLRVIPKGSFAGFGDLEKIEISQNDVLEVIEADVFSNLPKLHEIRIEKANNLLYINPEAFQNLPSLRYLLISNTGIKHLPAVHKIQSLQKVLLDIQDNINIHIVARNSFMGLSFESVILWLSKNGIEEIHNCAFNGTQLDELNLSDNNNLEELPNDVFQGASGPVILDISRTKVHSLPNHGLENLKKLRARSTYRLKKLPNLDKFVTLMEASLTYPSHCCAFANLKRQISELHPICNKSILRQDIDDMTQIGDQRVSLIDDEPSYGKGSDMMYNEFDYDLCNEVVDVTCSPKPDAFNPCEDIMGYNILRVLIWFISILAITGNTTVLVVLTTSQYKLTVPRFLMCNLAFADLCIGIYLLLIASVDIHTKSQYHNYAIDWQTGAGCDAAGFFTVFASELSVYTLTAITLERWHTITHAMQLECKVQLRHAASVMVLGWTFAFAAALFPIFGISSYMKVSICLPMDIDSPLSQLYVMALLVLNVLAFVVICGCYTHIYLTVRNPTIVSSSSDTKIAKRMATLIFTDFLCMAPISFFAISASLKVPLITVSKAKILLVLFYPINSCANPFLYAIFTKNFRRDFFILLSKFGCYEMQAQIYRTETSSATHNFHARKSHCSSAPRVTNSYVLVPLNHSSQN
- protocol: In Vitro Bio-test Procedure of Agonists and Antagonists to the FSH Receptor Using Primary Cultures of Rat Granulosa (estradiol secretion)
- Assay type: cell-based
- stated_conditions: antagonist mode, inhibition of FSH-induced estradiol secretion (ED50 of FSH, 0.5 ng/mL), rat granulosa cells, 72 h
The entries below come with measured IC50 values attached.
Report only the number, with the unit µM understood.

1) COc1ccc(C(=O)Nc2ccc(/C=C/c3ccc(NC(=O)c4ccc(S(C)(=O)=O)cc4)cc3S(=O)(=O)O)c(S(=O)(=O)O)c2)cc1S(=O)(=O)N1CCOCC1 [Example 30g] ... 2.4

Attention now turns to another entry.
What does the record list as IC50 for CS(=O)(=O)c1ccc(C(=O)Nc2ccc(/C=C/c3ccc(NC(=O)c4ccc(S(C)(=O)=O)c([N+](=O)[O-])c4)cc3S(=O)(=O)O)c(S(=O)(=O)O)c2)cc1[N+](=O)[O-] [Example 30c] ? 3.8

* * *

- tgt: FSH receptor (Homo sapiens)
- protocol: FSH Receptor Radioligand Membrane Binding Standard Pharmacological Test Procedure
- Set-up: expressed in transfected cells
- stated_conditions: [125I]FSH binding to membranes of CHO cells stably transfected with the human FSH receptor
The entries below come with measured log10 of IC50 values attached.
Reminder: these figures are log10 of reported IC50, in µM before transformation.

1. COCCNc1ccc(C(=O)Nc2ccc(/C=C/c3ccc(NC(=O)c4ccc(NCCOC)c(S(=O)(=O)N5CCOCC5)c4)cc3S(=O)(=O)O)c(S(=O)(=O)O)c2)cc1S(=O)(=O)N1CCOCC1 [Example 30l] ... 0.59
2. CS(=O)(=O)c1ccc(C(=O)Nc2ccc(CCc3ccc(NC(=O)c4ccc(S(C)(=O)=O)cc4)cc3S(=O)(=O)O)c(S(=O)(=O)O)c2)cc1 [Example 43e] ... 0.63
3. O=C(Nc1ccc(CCc2ccc(NC(=O)c3cccc(S(=O)(=O)N4CCOCC4)c3)cc2S(=O)(=O)O)c(S(=O)(=O)O)c1)c1cccc(S(=O)(=O)N2CCOCC2)c1 [Example 43d] ... 1.08
4. COc1ccc(C(=O)Nc2ccc(/C=C/c3ccc(NC(=O)c4ccc(S(C)(=O)=O)cc4)cc3S(=O)(=O)O)c(S(=O)(=O)O)c2)cc1S(=O)(=O)N1CCOCC1 [Example 30g] ... 0.20
5. CS(=O)(=O)c1ccc(C(=O)Nc2ccc(/C=C/c3ccc(NC(=O)c4ccc(S(C)(=O)=O)s4)cc3S(=O)(=O)O)c(S(=O)(=O)O)c2)s1 [Example 32b] ... 0.51

What does the record list as log10 of IC50 for CS(=O)(=O)c1ccc(C(=O)Nc2ccc(/C=C/c3ccc(NC(=O)c4ccc(S(C)(=O)=O)cc4)cc3S(=O)(=O)O)c(S(=O)(=O)O)c2)cc1 [Example 30q] ? 0.60

What does the record list as log10 of IC50 for COc1ccc(C(=O)Nc2ccc(CS(=O)(=O)Cc3ccc(NC(=O)c4ccc(OC)c(S(=O)(=O)N5CCOCC5)c4)cc3S(=O)(=O)O)c(S(=O)(=O)O)c2)cc1S(=O)(=O)N1CCOCC1 [Example 50b] ? 1.61
